procedureText: Stabilization of mode-1 phosphopeptide FAM-KRSHpSVP binding to recombinant 14-3-3 zeta (unknown origin) measured by fluorescence polarization assay
Parameters: species or system Homo sapiens
assayEndpoint: Kd
Express the reported value numerically, then name its unit.

Entry C=CC(C)(C)OC[C@H]1O[C@H](O[C@@H]2C3=C(C(C)C)C[C@H](OCc4ccc(C#N)cc4)[C@]3(C)/C=C3/[C@@H](COC)CC[C@H]3[C@@H](C)[C@H]2O)[C@H](O)[C@@H](O)[C@@H]1O — recorded Kd = 710 nM

COC[C@H]1CC[C@@H]2/C1=C\[C@@]1(C)CCC(C(C)C)=C1[C@@H](O[C@H]1O[C@@H]3COC(C)(C)O[C@H]3[C@H](O)[C@H]1O)[C@H](O)[C@@H]2C has a reported Kd of 230 nM

# molecule CC(C)OC[C@H]1CC[C@@H]2/C1=C\[C@@]1(C)CCC(C(C)C)=C1[C@@H](O[C@H]1O[C@@H]3COC(C)(C)O[C@H]3[C@H](O)[C@H]1O)[C@H](O)[C@@H]2C ; its Kd = 680 nM

Lab note: measured Kd of C=CC(C)(C)OC[C@H]1O[C@H](O[C@@H]2C3=C(C(C)C)C[C@H](OCc4ccccc4C(=O)OC)[C@]3(C)/C=C3/[C@@H](COC)CC[C@H]3[C@@H](C)[C@H]2O)[C@H](O)[C@@H](O)[C@@H]1O was 660 nM

Sample C=CC(C)(C)OC[C@H]1O[C@H](O[C@@H]2C3=C(C(C)C)C[C@H](OCc4ccccc4C(=O)O)[C@]3(C)/C=C3/[C@@H](COC)CC[C@H]3[C@@H](C)[C@H]2O)[C@H](O)[C@@H](O)[C@@H]1O ; Kd observed: 540 nM

Reported Kd for CCOC[C@H]1CC[C@@H]2/C1=C\[C@@]1(C)CCC(C(C)C)=C1[C@@H](O[C@H]1O[C@@H]3COC(C)(C)O[C@H]3[C@H](O)[C@H]1O)[C@H](O)[C@@H]2C was 750 nM

Short answer for C=CC(C)(C)OC[C@H]1O[C@H](O[C@@H]2C3=C(C(C)C)C[C@H](OCc4ccc(N=[N+]=[N-])cc4)[C@]3(C)/C=C3/[C@@H](COC)CC[C@H]3[C@@H](C)[C@H]2O)[C@H](O)[C@@H](O)[C@@H]1O : Kd was 620 nM

Kd in this record for C=CC(C)(C)OC[C@H]1O[C@H](O[C@@H]2C3=C(C(C)C)C[C@H](OCc4ccccc4N=[N+]=[N-])[C@]3(C)/C=C3/[C@@H](COC)CC[C@H]3[C@@H](C)[C@H]2O)[C@H](O)[C@@H](O)[C@@H]1O : 680 nM

Note to self: Kd recorded for COC[C@H]1CC[C@@H]2/C1=C\[C@@]1(C)CCC([C@H](C)CNC(C)=O)=C1[C@@H](O[C@H]1O[C@@H]3COC(C)(C)O[C@H]3[C@H](O)[C@H]1O)[C@H](O)[C@@H]2C was 110 nM

So, CC(C)C1=C2[C@@H](O[C@H]3O[C@@H]4COC(C)(C)O[C@H]4[C@H](O)[C@H]3O)[C@H](O)[C@H](C)[C@@H]3CC[C@H](COC(F)(F)F)/C3=C/[C@@]2(C)CC1 ? Its Kd was 650 nM

Ref: ChEMBL document CHEMBL5214953
